Recorded concentration at 0.5 h by entry
test: Evaluation of hippocampal distribution in mouse; assay type: in vivo; settings: plasma, male ICR mice, 10 mg/kg oral, 0.5 hr after administration, read-out: plasma concentration (mean)
Structures can show the parent of a compound that is named as a salt.
measurement_kind: concentration at 0.5 h (ng/mL)

>>> df
                                   compound  result_number
0  CCn1cc(NC(=O)c2cccc([C@@H]3C[C@H]3NCC3CC3)c2)cn1 (relative stereo) [Example 101, dihydrochloride]            907
1  Cc1cc(NC(=O)c2cccc([C@@H]3C[C@H]3NC3CCOCC3)c2)on1 (relative stereo) [Example 235, hydrochloride]            204
2  Cc1cc(NC(=O)c2cccc([C@@H]3C[C@H]3NCC3CC3)c2)n(C)n1 (relative stereo) [Example 107, dihydrochloride]           2560
3  O=C(NC1CC(F)(F)C1)c1cc([C@@H]2C[C@H]2NCC2CC2)ccc1F (relative stereo) [Example 241, hydrochloride]            167
4  O=C(NC1CC(F)(F)C1)c1ccc(F)c([C@@H]2C[C@H]2NCC2CC2)c1 (relative stereo) [Example 240, hydrochloride]            247
5  Cc1cc(NC(=O)c2cccc([C@@H]3C[C@H]3NC3CCC(F)(F)CC3)c2)n(C)n1 (relative stereo) [Example 215, dihydrochloride]           1570
